# Target Desc: T1, human melanocortin-4 receptor (hMC4-R) (human, UniProt P32245 1-332)
# T1 construct: whole, on cells; membranes prepared from hMC4-R cells were used; also called Melanocortin Receptor 4
# T1 sequence (P32245 whole entry): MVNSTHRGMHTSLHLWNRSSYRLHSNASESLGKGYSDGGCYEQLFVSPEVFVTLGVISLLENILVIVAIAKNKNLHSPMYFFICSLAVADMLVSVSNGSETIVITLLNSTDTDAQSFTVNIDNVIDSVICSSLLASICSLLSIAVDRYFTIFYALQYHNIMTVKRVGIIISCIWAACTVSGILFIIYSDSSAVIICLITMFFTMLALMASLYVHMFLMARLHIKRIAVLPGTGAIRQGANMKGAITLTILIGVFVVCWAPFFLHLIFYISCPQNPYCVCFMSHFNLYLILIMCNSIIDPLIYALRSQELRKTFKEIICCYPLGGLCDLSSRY
# Measurement Notes: 125I-NDP-α-MSH competition, hMC4-R membranes
Square brackets hold non-standard residues; d marks the D form. Ends that are not written are not given here. Nle = CCCC[C@H](N)C(=O)O
Would you mind telling me the reported % Inhibition at 1 µM of each entry?
Numbers only, in %.

Dear reader, for each entry below, please note its % Inhibition at 1 µM.
1. YV[Nle]GH[dF]RWDRCF-NH2 (not fully specified (bridges); printed as Tyr-Val-Nle-Gly-His-D-Phe-Arg-Trp-Asp-Arg-Cys-Phe-NH2; also: oxorhenium(V) N3S1 chelate (backbone N of D9, R10, C11 and C11 S)) [metallopeptide 3-2]
2. YV[Nle]GH[dF]RWDCRF-NH2 (not fully specified (bridges); printed as Tyr-Val-Nle-Gly-His-D-Phe-Arg-Trp-Asp-Cys-Arg-Phe-NH2; also: oxorhenium(V) N3S1 chelate (backbone N of W8, D9, C10 and C10 S)) [metallopeptide 3-3]

89
99

# batch size: 2; output % Inhibition at 1 µM per entry
1. YV[Nle]GH[dF]RCWDRF-NH2 (not fully specified (bridges); printed as Tyr-Val-Nle-Gly-His-D-Phe-Arg-Cys-Trp-Asp-Arg-Phe-NH2; also: bridge at 8 via Re(V)=O, other end not in the chain) [metallopeptide 3-5]
2. YVXGHFRWDRFC (Nle 3 (X in letters); D-Phe 6; C-terminal amide; Re complexed at Cys 12) [metallopeptide 3-1]

33
98
